polymerase ribozyme fitness (log ratio) values by entry
B1: TPR 5TU (parent)
chain: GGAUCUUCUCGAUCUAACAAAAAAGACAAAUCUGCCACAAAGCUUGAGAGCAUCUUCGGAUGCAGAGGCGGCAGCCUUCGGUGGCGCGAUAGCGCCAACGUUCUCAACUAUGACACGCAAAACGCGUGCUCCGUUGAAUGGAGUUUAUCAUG

Variants of: B1
Test: polymerase ribozyme fitness, log enrichment relative to wild type (log ratio); higher = more active; in vitro selection for triplet polymerase activity
Fewer inactive variants are shown than the library holds.

Mutation Spec: G92U C93A G133U G140A
polymerase ribozyme fitness (log ratio): ≤ -4.2

Mutation Spec: A52G C108U
polymerase ribozyme fitness (log ratio): -2.1

Mutation Spec: A12G U145A
polymerase ribozyme fitness (log ratio): 1.33

Mutation Spec: C8G A29C U55G A60G C85G A89G G140C
polymerase ribozyme fitness (log ratio): ≤ -4.2

Qu. Suppose we examine the variant G62A G141U ; what polymerase ribozyme fitness (log ratio) value has been reported?
Ans. 1.11

Qu. Ok, now U44A G62U G80C G140C
Ans. ≤ -4.2

Qu. Ok, now A21U A91G
Ans. -2.85

Qu. Ok, now C18G C93U G143U
Ans. -3.08

Qu. Ok, now A23C C43A A52U A119C U135G U139A G140A A142G
Ans. ≤ -4.2

Qu. Ok, now C32A G74C G81C G94A A121U
Ans. -4.03

Qu. Ok, now G59C G92A
Ans. -2.89

// data source = the RNAGym collection of RNA variant scans (doi:10.1073/pnas.2313332121)
